# credit: patent US12139488B2

System: pERK in HCT-116 cells (KRAS G13D)
Protocol details: Phospho-ERK inhibition (AlphaLISA SureFire Ultra p-ERK 1/2), HCT116
Format: cell-based, human
Test conditions: HCT116 cells; class symbol
Assay readout: IC50

Q) // fetch IC50 given entry Cc1c(F)cccc1S(=O)(=O)Nc1ccc(F)c(Nc2ncnc3ccc(-n4cc(S(=O)(=O)N5CCN(CCO)CC5)c5ccccc54)nc23)c1F [Ex 397]
A) < 0.5 µM

Q) // fetch IC50 given entry CC(=O)N1CCc2cnn(-c3ccc4ncnc(Nc5c(F)ccc(NS(=O)(=O)c6cccc(F)c6C)c5F)c4n3)c2C1 [Example 393]
A) 0.5 to 1 µM

Q) // fetch IC50 given entry N#CC1(c2cccc3c2ncn3-c2ccc3ncnc(Nc4c(F)ccc(NS(=O)(=O)c5cccc(Cl)c5Cl)c4F)c3n2)CC1 [Example 552]
A) < 0.5 µM

Q) // fetch IC50 given entry O=S(=O)(CC1CCOCC1)c1cn(-c2ccc3ncnc(Nc4c(F)ccc(NS(=O)(=O)c5cccc(Cl)c5Cl)c4F)c3n2)c2ccccc12 [Ex 442]
A) < 0.5 µM

Q) // fetch IC50 given entry O=S(=O)(Nc1ccc(F)c(Nc2ncnc3ccc(-n4cc(S(=O)(=O)N5CCN(CCO)CC5)c5ccccc54)nc23)c1F)c1cccc(Cl)c1Cl [Ex 389]
A) < 0.5 µM

Q) // fetch IC50 given entry Cc1c(F)cccc1S(=O)(=O)Nc1ccc(F)c(Nc2ncnc3ccc(-n4cnc5c(N(CCCO)CCCO)cccc54)nc23)c1F [Example 375]
A) < 0.5 µM

Q) // fetch IC50 given entry Cc1c(F)cccc1S(=O)(=O)Nc1ccc(F)c(Nc2ncnc3ccc(-n4cc5c(n4)CCCN5C)nc23)c1F [Example 356]
A) < 0.5 µM

Q) // fetch IC50 given entry CC(=O)N1CCCc2nn(-c3ccc4ncnc(Nc5c(F)ccc(NS(=O)(=O)c6cccc(F)c6C)c5F)c4n3)cc21 [Example 357]
A) 0.5 to 1 µM

Q) // fetch IC50 given entry Cc1cc(N)ccc1S(=O)(=O)Nc1ccc(F)c(Nc2ncnc3ccc(-n4cnc5c(N)cccc54)nc23)c1F [Example 369]
A) 0.5 to 1 µM

Q) // fetch IC50 given entry O=[N+]([O-])c1cn(-c2ccc3ncnc(Nc4c(F)ccc(NS(=O)(=O)c5cccc(Cl)c5Cl)c4F)c3n2)c2ccccc12 [Example 506]
A) 1 to 10 µM
